- Assay Method Text: minipig: tissue distribution of radioactivity and unchanged compound
- Type: in vivo, Göttingen minipig
- Details: male, Göttingen, minipig, heart, topical, 70 mg spiro-oxindole compound equivalents ointment/kg
- Excerpt: The following tissues/organs were removed from the remaining carcass: The urinary bladder from each animal was rinsed with saline and the washings discarded. Each section of the gastrointestinal tract wall was washed to remove contents (which were retained for analysis) prior to analysis. Remaining carcasses were discarded.
Outcome Measure: concentration at 24 h (ng/g)
Write down the numeric answer in ng/g and omit the unit.

# input Given the entry `O=C1N(Cc2ccc(C(F)(F)F)o2)c2ccccc2[C@]12COc1cc3c(cc12)OCO3` , report its measured concentration at 24 h.
# output 17.5

---

- Assay Method Text: minipig: tissue distribution of radioactivity and unchanged compound
- Format: in vivo, Göttingen minipig
- Details: male, Göttingen, minipig, liver, topical, 70 mg spiro-oxindole compound equivalents ointment/kg
Outcome Measure: concentration at 24 h
Could you give the number and then its unit, please?

# input What does the record list as concentration at 24 h for `O=C1N(Cc2ccc(C(F)(F)F)o2)c2ccccc2[C@]12COc1cc3c(cc12)OCO3` ?
# output 11.3 ng/g

---

- Assay Method Text: minipig: tissue distribution of radioactivity and unchanged compound
- Assay type: in vivo, Göttingen minipig
- Details: male, Göttingen, minipig, skin from the dose site, topical, 70 mg spiro-oxindole compound equivalents ointment/kg
Outcome Measure: concentration at 24 h (ng/g)
The reply should contain only the number, in ng/g.

# input Look up concentration at 24 h for this compound: O=C1N(Cc2ccc(C(F)(F)F)o2)c2ccccc2[C@]12COc1cc3c(cc12)OCO3 [spiro-oxindole compound]
# output 1860

---

- Target Desc: NaV1.7 (Homo sapiens, UniProt Q15858)
- Sequence (Q15858 whole entry): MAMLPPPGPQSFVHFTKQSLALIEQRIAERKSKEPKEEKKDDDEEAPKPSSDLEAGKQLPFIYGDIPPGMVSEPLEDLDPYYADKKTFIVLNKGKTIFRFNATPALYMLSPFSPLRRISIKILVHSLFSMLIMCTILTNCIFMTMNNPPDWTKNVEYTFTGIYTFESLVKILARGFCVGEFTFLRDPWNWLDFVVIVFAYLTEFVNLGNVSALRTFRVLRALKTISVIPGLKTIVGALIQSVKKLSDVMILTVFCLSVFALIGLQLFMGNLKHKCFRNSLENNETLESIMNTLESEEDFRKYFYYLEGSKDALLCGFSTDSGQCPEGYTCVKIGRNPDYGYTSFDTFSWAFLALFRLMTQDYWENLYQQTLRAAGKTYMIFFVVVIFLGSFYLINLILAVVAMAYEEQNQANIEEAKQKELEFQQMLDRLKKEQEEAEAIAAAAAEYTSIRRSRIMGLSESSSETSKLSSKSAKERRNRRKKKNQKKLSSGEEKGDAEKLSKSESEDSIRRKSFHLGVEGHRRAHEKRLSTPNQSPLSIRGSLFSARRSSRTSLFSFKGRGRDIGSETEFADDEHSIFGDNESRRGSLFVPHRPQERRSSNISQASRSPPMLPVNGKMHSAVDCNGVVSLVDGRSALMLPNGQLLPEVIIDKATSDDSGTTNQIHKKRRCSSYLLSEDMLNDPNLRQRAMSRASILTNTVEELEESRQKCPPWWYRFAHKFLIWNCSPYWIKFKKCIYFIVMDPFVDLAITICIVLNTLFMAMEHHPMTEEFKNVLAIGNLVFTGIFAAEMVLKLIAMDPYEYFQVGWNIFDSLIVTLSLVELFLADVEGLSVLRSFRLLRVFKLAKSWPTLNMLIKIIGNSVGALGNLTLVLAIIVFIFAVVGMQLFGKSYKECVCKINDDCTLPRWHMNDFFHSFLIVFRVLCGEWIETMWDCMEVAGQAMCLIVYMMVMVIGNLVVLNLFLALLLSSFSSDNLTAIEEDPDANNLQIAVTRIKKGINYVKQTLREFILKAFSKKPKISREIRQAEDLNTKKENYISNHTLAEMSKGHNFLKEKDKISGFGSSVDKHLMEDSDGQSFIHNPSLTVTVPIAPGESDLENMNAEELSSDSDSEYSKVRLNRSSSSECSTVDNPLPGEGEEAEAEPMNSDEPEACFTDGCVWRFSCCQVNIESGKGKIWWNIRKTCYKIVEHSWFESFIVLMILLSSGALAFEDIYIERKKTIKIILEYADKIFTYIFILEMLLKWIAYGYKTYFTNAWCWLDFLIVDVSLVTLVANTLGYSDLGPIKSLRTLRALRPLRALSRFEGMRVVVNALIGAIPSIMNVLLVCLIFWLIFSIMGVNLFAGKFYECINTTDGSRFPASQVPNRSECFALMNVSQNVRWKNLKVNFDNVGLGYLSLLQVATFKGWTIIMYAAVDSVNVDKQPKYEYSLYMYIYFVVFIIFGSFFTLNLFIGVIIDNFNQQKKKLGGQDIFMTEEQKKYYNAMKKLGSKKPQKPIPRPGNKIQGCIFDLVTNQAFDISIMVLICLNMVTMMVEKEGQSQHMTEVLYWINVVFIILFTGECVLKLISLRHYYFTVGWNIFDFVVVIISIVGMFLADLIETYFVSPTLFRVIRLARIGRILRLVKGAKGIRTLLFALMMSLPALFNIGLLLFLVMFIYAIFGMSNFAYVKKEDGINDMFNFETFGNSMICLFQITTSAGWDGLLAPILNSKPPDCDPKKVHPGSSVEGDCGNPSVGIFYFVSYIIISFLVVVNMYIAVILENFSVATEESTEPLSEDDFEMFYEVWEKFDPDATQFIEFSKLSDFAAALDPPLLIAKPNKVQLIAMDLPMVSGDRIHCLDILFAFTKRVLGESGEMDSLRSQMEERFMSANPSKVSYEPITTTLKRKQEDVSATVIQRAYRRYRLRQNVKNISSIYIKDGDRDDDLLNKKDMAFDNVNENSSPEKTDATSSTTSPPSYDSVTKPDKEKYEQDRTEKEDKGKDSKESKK
- Assay Method Text: block of NaV1.7 (inactivated vs resting state)
- Type: biochemical
- Details: inactivated state
Outcome Measure: IC50 (nM)
Reply with just the number (in nM).

# input Can you share its IC50? I mean this molecule: `O=C1N(Cc2ccc(C(F)(F)F)o2)c2ccccc2[C@]12COc1cc3c(cc12)OCO3`
# output 50

---

- Target Desc: NaV1.7 (Homo sapiens, UniProt Q15858)
- Assay Method Text: block of NaV1.7 (inactivated vs resting state)
- Assay type: biochemical
- Details: resting state
Outcome Measure: pIC50
Schema: pIC50 number; meaning minus log10 of the concentration expressed in molar units.

# input Item under review: `O=C1N(Cc2ccc(C(F)(F)F)o2)c2ccccc2[C@]12COc1cc3c(cc12)OCO3` . Reported pIC50?
# output 4.95
